# Tested on: Mtb
# assay_text: microbe, parasite or virus in culture
# Assay type: cell-based
# stated_conditions: Mycobacterium tuberculosis; media with cholesterol and acetate
pEC50: −log10 of the molar value.
Task for the reader: assign each of the following compounds its reported pEC50.

Incoming: Return value of pEC50 for input Cc1nonc1CC(=O)N1CCC(c2nc(-c3ccc(F)cc3)no2)CC1 [mCIS635] , no commentary.
Outgoing: < 4.30

Incoming: Entry Cn1ncnc1CC(=O)N1CCC(c2nc(-c3ccc(Cl)c(Cl)c3)no2)CC1 needs its pEC50 filled in; supply it.
Outgoing: < 4.30

Incoming: State its pEC50 for this compound: Cc1nonc1CC(=O)N1CCC(n2nnc(-c3ccc(F)cc3)n2)CC1
Outgoing: < 4.30

Data credit: paper PMC8856561
